assay: Phase 2 toxicokinetics of brincidofovir and cidofovir in plasma; type: in vivo, Sprague-Dawley CD rats; conditions: female, Sprague-Dawley CD, rat, plasma, intravenous, 1 mg/kg, brincidofovir 1 mg/kg, Female, Day 1, 2 h; read-out: brincidofovir Imputed Mean Concentration (IMC)
Measure: concentration at 2 h (ng/mL)
Give the value in ng/mL but do not write ng/mL after it.

concentration at 2 h in this record for CCCCCCCCCCCCCCCCOCCCOP(=O)(O)CO[C@H](CO)Cn1ccc(N)nc1=O [Brincidofovir] : 191

* * *

test: Comparison of toxicity of orally and intravenously administered brincidofovir (rat intestine); format: in vivo; conditions: Sprague-Dawley CD, rat, in vivo; IV, repeat dose 15 mg/kg; read-out: Exposure AUC
Measure: AUC (ng·h/mL)
Give the value in ng·h/mL but do not write ng·h/mL after it.

AUC in this record for CCCCCCCCCCCCCCCCOCCCOP(=O)(O)CO[C@H](CO)Cn1ccc(N)nc1=O : 9890

* * *

assay: 28-day study toxicokinetics of brincidofovir and CDV in plasma; type: in vivo, Sprague-Dawley CD rats; details: both sexes, Sprague-Dawley CD, rat, in vivo, iv, 15 mg/kg, plasma brincidofovir, Day 29, 15 mg/kg, combined male and female rats, mean
Measure: AUC(0-t)
Hi, when you answer, please include the unit after the number. Thanks!

AUC(0-t) in this record for CCCCCCCCCCCCCCCCOCCCOP(=O)(O)CO[C@H](CO)Cn1ccc(N)nc1=O [Brincidofovir] : 9890 ng·h/mL

* * *

assay: IV BCV single ascending dose study: plasma BCV and CDV PK; format: in vivo, human; conditions: human, plasma, iv, 25 mg, plasma BCV, Cohort 2, BCV 25 mg 2 h IV infusion, n = 6, geometric mean; read-out: AUC∞
Measure: AUC(0-inf) (ng·h/mL)
Give the value in ng·h/mL but do not write ng·h/mL after it.

AUC(0-inf) in this record for CCCCCCCCCCCCCCCCOCCCOP(=O)(O)CO[C@H](CO)Cn1ccc(N)nc1=O : 2890

* * *

test: Phase 2 toxicokinetics of brincidofovir and cidofovir in plasma; format: in vivo, Sprague-Dawley CD rats; settings: male, Sprague-Dawley CD, rat, plasma, intravenous, 15 mg/kg, plasma; 15 mg/kg; male rats; Day 7; 24 h; read-out: C (Concentration), individual animals
Measure: concentration at 24 h

concentration at 24 h in this record for CCCCCCCCCCCCCCCCOCCCOP(=O)(O)CO[C@H](CO)Cn1ccc(N)nc1=O [Brincidofovir] : 1.85 ng/mL

* * *

test: IV BCV single ascending dose study: plasma BCV and CDV PK; assay type: in vivo, human; details: human, plasma, iv, 50 mg, plasma BCV, Cohort 4, BCV 50 mg 4 h IV infusion, n = 9, geometric mean; read-out: AUC∞
Measure: AUC(0-inf) (ng·h/mL)
Give the value in ng·h/mL but do not write ng·h/mL after it.

AUC(0-inf) in this record for CCCCCCCCCCCCCCCCOCCCOP(=O)(O)CO[C@H](CO)Cn1ccc(N)nc1=O : 6570

* * *

experiment: IV BCV single ascending dose study: plasma BCV and CDV PK; format: in vivo, human; settings: human, plasma, iv, 50 mg, plasma BCV, Cohort 3, BCV 50 mg 2 h IV infusion, n = 9, geometric mean; read-out: Cmax
Measure: Cmax (ng/mL)
Give the value in ng/mL but do not write ng/mL after it.

Cmax in this record for CCCCCCCCCCCCCCCCOCCCOP(=O)(O)CO[C@H](CO)Cn1ccc(N)nc1=O : 2950
